So I've got a bunch of compounds here, and I need their IC50 values.
- Experiment notes: Inhibition of TNFalpha-stimulated pro MMP9 production in human SRA 01/04 cells after 24 hrs by SDS-PAGE based gelatin zymography assay
- Format: functional, cell-based
Give bare numbers, in µM.

COc1c(OC)c(OC)c2c(=O)cc(-c3ccc(O)cc3)oc2c1OC :: 14.3

Report IC50 for every entry below.
1. COc1ccccc1-c1cc(=O)c2c(OC)c(OC)c(OC)c(OC)c2o1
2. COc1ccc(-c2cc(=O)c3c(O)c(OC)c(OC)c(OC)c3o2)cc1O
3. COc1c(OC)c(OC)c2c(=O)cc(-c3cc(O)cc(O)c3)oc2c1OC
4. COc1c(OC)c(OC)c2c(=O)cc(-c3ccccc3O)oc2c1OC

1: 24; 2: 29.6; 3: 24; 4: 68

Quick one: give me IC50 for each item below, same order please.
1. COc1c(OC)c(O)c2c(=O)cc(-c3ccc(O)cc3)oc2c1OC
2. COc1cc(-c2cc(=O)c3c(O)c(OC)c(OC)c(OC)c3o2)ccc1O

1: 22.3; 2: 10.6

###

- Experiment notes: Inhibition of PMA-stimulated pro MMP9 production in human SRA 01/04 cells after 24 hrs by SDS-PAGE based gelatin zymography assay
- Format: functional, cell-based
Exercise: state measured pIC50 for each of the compounds provided.
Answers are plain numbers, as −log10 of the molar value.

COc1c(OC)c(OC)c2c(=O)cc(-c3cc(O)cc(O)c3)oc2c1OC :: 5.09

Give me pIC50 for each of these compounds, listed below.
1. COc1ccc(-c2cc(=O)c3c(OC)c(OC)c(OC)c(OC)c3o2)cc1
2. COc1cc(-c2cc(=O)c3c(O)c(OC)c(OC)c(OC)c3o2)ccc1O
3. COc1c(OC)c(OC)c2c(=O)cc(-c3ccc(O)cc3)oc2c1OC
4. COc1c(OC)c(O)c2c(=O)cc(-c3ccc(O)cc3)oc2c1OC
5. COc1ccc(-c2cc(=O)c3c(O)c(OC)c(OC)c(OC)c3o2)cc1OC
6. COc1cccc(-c2cc(=O)c3c(OC)c(OC)c(OC)c(OC)c3o2)c1
7. COc1cc(OC)cc(-c2cc(=O)c3c(OC)c(OC)c(OC)c(OC)c3o2)c1
8. COc1c(OC)c(OC)c2c(=O)cc(-c3ccccc3O)oc2c1OC

1: 5.17; 2: 6.15; 3: 5.59; 4: 5.46; 5: 5.52; 6: 5.26; 7: 4.92; 8: 6.40

Count: 3. Required value per item: pIC50.
1. COc1ccccc1-c1cc(=O)c2c(OC)c(OC)c(OC)c(OC)c2o1
2. COc1ccc(-c2cc(=O)c3c(O)c(OC)c(OC)c(OC)c3o2)cc1O
3. COc1c(OC)c(OC)c2c(=O)cc(-c3cccc(O)c3)oc2c1OC

1: 4.86; 2: 5.82; 3: 5.60
